# maps each entry to its CDK2 % Inhibition at 0.03 μM
systemTested: CDK2/cyclin A (Homo sapiens, UniProt P24941)
Construct: made in house; host or cells: CDK2: insect cells (baculovirus); cyclin A: E. coli
testName: Inhibition of CDK2/cyclin A retinoblastoma kinase activity (Ki; % inhibition)
Assay type: biochemical
reportedConditions: 0.03 μM compound
Form entry: value (%) — number only.

Some solved cases for reference:
compound="COc1ccc(NC(=O)c2ccc(Nc3nc(N)c(C(=O)c4c(F)cccc4F)s3)cc2)cc1F [Example G347]" unitstext=% numericvalue=13
compound="CCN(CC)C(=O)C1CCCN(C(=O)c2ccc(Nc3nc(N)c(C(=O)c4c(F)cccc4F)s3)cc2)C1 (stereo not drawn) [Example G224]" unitstext=% numericvalue=16
compound="CC(=O)N(C)C1CCN(C(=O)c2ccc(Nc3nc(N)c(C(=O)c4c(F)cccc4F)s3)cc2)C1 (stereo not drawn) [Example G348]" unitstext=% numericvalue=−21
compound="Nc1nc(Nc2ccc(C(=O)NCCO)cc2)sc1C(=O)c1c(F)cccc1F [Example G326]" unitstext=% numericvalue=12

# context switch: different compound, same CDK2 % Inhibition at 0.03 μM
// recorded CDK2 % Inhibition at 0.03 μM for Nc1nc(Nc2ccc(C(=O)NCCCc3ccccc3)cc2)sc1C(=O)c1c(F)cccc1F [Example G325] : 13
